Fold Shift of EC50 reference
Biological target: PTHR1 receptor
Sequence (P25961 whole entry): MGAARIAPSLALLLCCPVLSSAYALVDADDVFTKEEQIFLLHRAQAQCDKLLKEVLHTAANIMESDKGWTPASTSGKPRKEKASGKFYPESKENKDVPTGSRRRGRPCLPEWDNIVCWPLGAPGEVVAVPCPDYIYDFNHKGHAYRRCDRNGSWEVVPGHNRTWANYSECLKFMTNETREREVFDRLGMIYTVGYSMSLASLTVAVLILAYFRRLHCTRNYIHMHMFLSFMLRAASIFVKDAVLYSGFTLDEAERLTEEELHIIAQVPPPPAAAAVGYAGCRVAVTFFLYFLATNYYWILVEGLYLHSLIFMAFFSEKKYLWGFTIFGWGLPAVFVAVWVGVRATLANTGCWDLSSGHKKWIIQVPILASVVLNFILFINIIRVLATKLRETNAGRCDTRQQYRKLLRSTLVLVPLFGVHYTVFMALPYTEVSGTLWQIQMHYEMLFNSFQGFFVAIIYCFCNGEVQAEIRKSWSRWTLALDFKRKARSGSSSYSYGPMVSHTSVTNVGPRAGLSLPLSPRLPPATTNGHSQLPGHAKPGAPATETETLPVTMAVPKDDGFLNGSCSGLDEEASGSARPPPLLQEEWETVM
* marks the point of attachment. Palmitoyl = CCCCCCCCCCCCCCCC(=O)*
Provide only the numeric value, understood in fold.

[[record]]
binder = "Palmitoyl-SSYFRRLHSTRNYIH-NH2 (SMILES CCCCCCCCCCCCCCCC(=O)N[C@@H](CO)C(=O)N[C@@H](CO)C(=O)N[C@@H](Cc1ccc(O)cc1)C(=O)N[C@@H](Cc1ccccc1)C(=O)N[C@@H](CCCNC(=N)N)C(=O)N[C@@H](CCCNC(=N)N)C(=O)N[C@@H](CC(C)C)C(=O)N[C@@H](Cc1c[nH]cn1)C(=O)N[C@@H](CO)C(=O)N[C@H](C(=O)N[C@@H](CCCNC(=N)N)C(=O)N[C@@H](CC(N)=O)C(=O)N[C@@H](Cc1ccc(O)cc1)C(=O)N[C@H](C(=O)N[C@@H](Cc1c[nH]cn1)C(N)=O)[C@@H](C)CC)[C@@H](C)O) [Compound 12]"
units_label = "fold"
experimental_value = 0.9


Then this binder:
INPUT: Which Fold Shift of EC50 reading was recorded for the binder Palmitoyl-LAYFRRLHSTR-NH2 (SMILES CCCCCCCCCCCCCCCC(=O)N[C@@H](CC(C)C)C(=O)N[C@@H](C)C(=O)N[C@@H](Cc1ccc(O)cc1)C(=O)N[C@@H](Cc1ccccc1)C(=O)N[C@@H](CCCNC(=N)N)C(=O)N[C@@H](CCCNC(=N)N)C(=O)N[C@@H](CC(C)C)C(=O)N[C@@H](Cc1c[nH]cn1)C(=O)N[C@@H](CO)C(=O)N[C@H](C(=O)N[C@@H](CCCNC(=N)N)C(N)=O)[C@@H](C)O) [Compound 4] ?
OUTPUT: 0.9
